system: Staphylococcus aureus; assay: Antibacterial activity against Staphylococcus aureus ATCC 29213 after 18 to 20 hrs by broth microdilution method; type: functional
Non-standard residues stand in square brackets, D forms with d. Residues, ends and D or L forms follow the SMILES beside them. *: point of attachment. Cha = N[C@@H](CC1CCCCC1)C(=O)O; Decanoyl = CCCCCCCCCC(=O)*; Heptanoyl = CCCCCCC(=O)*; Octanoyl = CCCCCCCC(=O)*; Dab = NCC[C@H](N)C(=O)O; Cbz = O=C(OCc1ccccc1)*; Bz = O=C(c1ccccc1)*

Compound | Target of assay | MIC
CCCCCCCC(=O)N[C@@H](CCN)C(=O)N[C@H](C(=O)N[C@@H](CCN)C(=O)N[C@H](Cc1ccccc1)C(=O)N[C@@H](CC(C)C)C(=O)N[C@@H](CCN)C(=O)N[C@@H](C(=O)N[C@@H](CC(C)C)C(=O)N[C@@H](CO)C(N)=O)C(C)C)[C@@H](C)CC (Octanoyl-[Dab]I[Dab][dF]L[Dab][dV]LS-NH2) | Staphylococcus aureus | 8 to 16 µg/mL
CCCCCCCC(=O)N[C@@H](CCN)C(=O)N[C@@H](CCN)C(=O)N[C@@H](CCN)C(=O)N[C@H](Cc1ccccc1)C(=O)N[C@@H](CC(C)C)C(=O)N[C@@H](CCN)C(=O)N[C@@H](C(=O)N[C@@H](CC(C)C)C(=O)N[C@@H](CCN)C(N)=O)C(C)C (Octanoyl-[Dab][Dab][Dab][dF]L[Dab][dV]L[Dab]-NH2) | Staphylococcus aureus | ≥ 32 µg/mL
CC[C@H](C)[C@H](NC(=O)[C@H](CCN)NC(=O)c1ccccc1)C(=O)N[C@@H](CCN)C(=O)N[C@H](Cc1ccccc1)C(=O)N[C@@H](CC(C)C)C(=O)N[C@@H](CCN)C(=O)N[C@@H](C(=O)N[C@@H](CC(C)C)C(=O)N[C@@H](CO)C(N)=O)C(C)C (Bz-[Dab]I[Dab][dF]L[Dab][dV]LS-NH2) | Staphylococcus aureus | > 32 µg/mL
CC[C@H](C)[C@H](NC(=O)[C@H](CCN)NC(=O)OCc1ccccc1)C(=O)N[C@@H](CCN)C(=O)N[C@H](Cc1ccccc1)C(=O)N[C@@H](CC(C)C)C(=O)N[C@@H](CCN)C(=O)N[C@@H](C(=O)N[C@@H](CC(C)C)C(=O)N[C@@H](CO)C(N)=O)C(C)C (Cbz-[Dab]I[Dab][dF]L[Dab][dV]LS-NH2) | Staphylococcus aureus | > 32 µg/mL
CC[C@H](C)[C@H](NC(=O)[C@H](CCN)NC(=O)[C@@H](N)CC1CCCCC1)C(=O)N[C@@H](CCN)C(=O)N[C@H](Cc1ccccc1)C(=O)N[C@@H](CC(C)C)C(=O)N[C@@H](CCN)C(=O)N[C@@H](C(=O)N[C@@H](CC(C)C)C(=O)N[C@@H](CO)C(N)=O)C(C)C (H-[Cha][Dab]I[Dab][dF]L[Dab][dV]LS-NH2) | Staphylococcus aureus | > 32 µg/mL
CCCCCCC(=O)N[C@@H](CCN)C(=O)N[C@H](C(=O)N[C@@H](CCN)C(=O)N[C@H](Cc1ccccc1)C(=O)N[C@@H](CC(C)C)C(=O)N[C@@H](CCN)C(=O)N[C@H](CC(C)C)C(=O)N[C@@H](CC(C)C)C(=O)N[C@@H](CO)C(N)=O)[C@@H](C)CC (Heptanoyl-[Dab]I[Dab][dF]L[Dab][dL]LS-NH2) | Staphylococcus aureus | 16 to 32 µg/mL
CCCCCCCC(=O)N[C@H](CCCN)C(=O)N[C@H](C(=O)N[C@@H](CCCN)C(=O)N[C@@H](Cc1ccccc1)C(=O)N[C@@H](CC(C)C)C(=O)N[C@@H](CCCN)C(=O)N[C@H](C(=O)N[C@@H](CC(C)C)C(=O)N[C@@H](CO)C(N)=O)C(C)C)[C@@H](C)CC | Staphylococcus aureus | > 32 µg/mL
CCCCCCC(=O)N[C@@H](CCN)C(=O)N[C@H](C(=O)N[C@@H](CCN)C(=O)N[C@H](Cc1ccccc1)C(=O)N[C@@H](CC(C)C)C(=O)N[C@@H](CCN)C(=O)N[C@@H](C(=O)N[C@@H](CC(C)C)C(=O)N[C@@H](CO)C(N)=O)C(C)C)[C@@H](C)CC (Heptanoyl-[Dab]I[Dab][dF]L[Dab][dV]LS-NH2) | Staphylococcus aureus | > 32 µg/mL
CCCCCCCCCC(=O)N[C@@H](CCN)C(=O)N[C@H](C(=O)N[C@@H](CCN)C(=O)N[C@H](Cc1ccccc1)C(=O)N[C@@H](CC(C)C)C(=O)N[C@@H](CCN)C(=O)N[C@@H](C(=O)N[C@@H](CC(C)C)C(=O)N[C@@H](CO)C(N)=O)C(C)C)[C@@H](C)CC (Decanoyl-[Dab]I[Dab][dF]L[Dab][dV]LS-NH2) | Staphylococcus aureus | 2 to 4 µg/mL
CCCCCCC(=O)N[C@@H](CCN)C(=O)N[C@@H](Cc1ccccc1)C(=O)N[C@@H](CCN)C(=O)N[C@H](Cc1ccccc1)C(=O)N[C@@H](CC(C)C)C(=O)N[C@@H](CCN)C(=O)N[C@H](CC(C)C)C(=O)N[C@@H](CC(C)C)C(=O)N[C@@H](CO)C(N)=O (Heptanoyl-[Dab]F[Dab][dF]L[Dab][dL]LS-NH2) | Staphylococcus aureus | 16 to 32 µg/mL
CCCCCCC(=O)N[C@@H](CCN)C(=O)N[C@@H](Cc1ccccc1)C(=O)N[C@@H](CCN)C(=O)N[C@H](Cc1ccccc1)C(=O)N[C@@H](CC(C)C)C(=O)N[C@@H](CCN)C(=O)N[C@@H](C(=O)N[C@@H](CC(C)C)C(=O)N[C@@H](CO)C(N)=O)C(C)C (Heptanoyl-[Dab]F[Dab][dF]L[Dab][dV]LS-NH2) | Staphylococcus aureus | ≥ 32 µg/mL
CCCCCCC(=O)N[C@@H](CCN)C(=O)N[C@H](C(=O)N[C@@H](CCN)C(=O)N[C@H](Cc1ccccc1)C(=O)N[C@@H](CC(C)C)C(=O)N[C@@H](CCN)C(=O)N[C@@H](C(=O)N[C@@H](CC(C)C)C(=O)N[C@@H](CO)C(N)=O)C(C)C)C(C)C (Heptanoyl-[Dab]V[Dab][dF]L[Dab][dV]LS-NH2) | Staphylococcus aureus | > 32 µg/mL
CCCCCCCCCC(=O)N[C@@H](CCN)C(=O)N[C@H](C(=O)N[C@H](C(=O)N[C@H](CC(C)C)C(=O)N[C@@H](CC(C)C)C(=O)N[C@@H](CCN)C(=O)N[C@@H](C(=O)N[C@@H](CC(C)C)C(=O)N[C@@H](CO)C(N)=O)C(C)C)[C@@H](C)O)[C@@H](C)CC (Decanoyl-[Dab]IT[dL]L[Dab][dV]LS-NH2) | Staphylococcus aureus | > 32 µg/mL
